The reported measurements were obtained from paper PMC10950972.

Experiment: Phase 1 relative bioavailability study part 1: plasma pharmacokinetics of fedratinib (2-period crossover)
Format: in vivo, human
Conditions: human, plasma, po, 400 mg, Treatment 1A: single 400 mg oral, 4 × 100-mg intact capsules with nutritional supplement; n = 27; read-out: Tmax, median (range)
Experimental: Study part 1 was a 2-period, 2-sequence, open-label, crossover design (Fig. 1A). […] For study part 1, and part 2 treatments 2A and 2B, blood samples were collected pre-dose (0 h) and at 0.5, 1, 1.5, 2, 3, 4, 6, 8, 12, 24, 48, 72, 120, 168, 192, and 240 h post-dose. […] The plasma concentration of fedratinib was measured using a validated liquid chromatography-tandem mass spectrometry assay with a lower limit of quantification of 1.00 ng/mL [12, 20]. […]
property: Tmax (h)
Your answer should be a plain number; it is taken to be in h.

Data request: Please report the recorded Tmax for `Cc1cnc(Nc2ccc(OCCN3CCCC3)cc2)nc1Nc1cccc(S(=O)(=O)NC(C)(C)C)c1` .
Data returned: 2.1
